assayExplanation: Compound was evaluated for the pharmacokinetic parameter, Terminal half life period
Format: ADME, organism-based
runConditions: mouse, in vivo
observable: half-life (h)
Number only, in h; omit the unit.

Notebook: `Nc1ncnc2c1c(-c1ccc(Oc3ccccc3)cc1)cn2C1CCCC1` , half-life read as 7.7

###

tgt: Platelet-derived growth factor receptor (Homo sapiens, UniProt P09619+P16234)
assayExplanation: Inhibition of Platelet-derived growth factor receptor (Inactive at 1 mM ATP)
observable: IC50

IC50 reading for `CN1CCN([C@H]2CC[C@@H](n3cc(-c4ccc(Oc5ccccc5)cc4)c4c(N)ncnc43)CC2)CC1` : > 20 µM

###

Species on record: Homo sapiens
assayExplanation: Inhibition of IL-2 production in whole blood assay
Format: functional
observable: pIC50
Friendly reminder that pIC50 comes from taking -log10 of the concentration in mol/L.

Measured pIC50, `CN1CCN([C@H]2CC[C@@H](n3cc(-c4ccc(Oc5ccccc5)cc4)c4c(N)ncnc43)CC2)CC1` : 7.15
